Tested on: HEK-293T
Test: Multiplex assay against HEK293T
Assay type: toxicity, cell-based
Settings: human, 48 h, 10 µM, compound concentration 10 uM, replicate 1
Classify by measured Population Apoptotic (%): class 1 if it is equal to or exceeds 30%, class 0 if it is smaller.

{"columns": ["molecule", "assigned label"],
 "data": [
  ["Cc1ccccc1C(=O)Nc1ccc(C(=O)N2CCCC(N(C)C)c3ccccc32)cc1.Cl (stereo unspecified)", "class 1"],
  ["CN(C)c1ccnc2sc3c(=O)n(N4CCCCCC4)cnc3c12", "class 1"],
  ["CC(=O)NCCc1c(Cc2ccccc2)[nH]c2ccccc12", "class 0"]
]}

Query: Kindly determine if Population Apoptotic (%) recorded for O=S(=O)(c1ccccc1)c1cnc2c(N3CCNCC3)cccc2c1 [INTEPIRDINE] is above or exactly 30%.
Reply: class 1

Query: Kindly determine if Population Apoptotic (%) recorded for `Cc1ccc(-c2ccc(F)cc2COc2ccc(CCC(=O)O)cc2)cc1` is above or exactly 30%.
Reply: class 0

Query: Kindly determine if Population Apoptotic (%) recorded for `CCCC(CCC)C(=O)O` is above or exactly 30%.
Reply: class 0

---

System: HEK-293T
Assay: Multiplex assay against HEK293T
Format: toxicity, cell-based
Details: human, 48 h, 10 µM, compound concentration 10 uM, replicate 2
quantity measured: Population Tubulin-Different-Phenotype (%)
Kindly format the answer as number then unit.

For each of the compounds below, state Population Tubulin-Different-Phenotype (%).
1. O=C1COc2nccc(-c3ccccc3F)c2CN1Cc1cc(C(F)(F)F)cc(C(F)(F)F)c1
2. Cc1ccc(-c2ccc(F)cc2COc2ccc(CCC(=O)O)cc2)cc1
3. CC1(COc2ccc3c(c2)ncn3-c2ccc3cccc(N4CCC(N)CC4)c3n2)COC1 [CRENOLANIB]
4. Oc1c(CN2CCN(c3ccccn3)CC2)cc(Cl)c2cccnc12

Reply:
1: 25%; 2: 8%; 3: 96%; 4: 42%

For each of the compounds below, state Population Tubulin-Different-Phenotype (%).
1. CSc1ccccc1N1CCN(CCCCCC(=O)NC2CCCc3ccccc32)CC1.Cl (centres undefined)
2. CCCn1c(=O)c2[nH]c(C3CCCC3)nc2n(CCC)c1=O
3. Cc1ccc(/C(=C\CN2CCCC2)c2ccccn2)cc1 [TRIPROLIDINE]
4. O=C(O)Cc1ccccc1Nc1c(Cl)cccc1Cl [DICLOFENAC]
5. C[C@@H]1C[C@H]2[C@@H]3CCC4=CC(=O)C=C[C@]4(C)[C@@]3(F)[C@@H](O)C[C@]2(C)[C@@]1(O)C(=O)CO [DEXAMETHASONE]
6. O=C(NCC(=O)N1CC[C@H](N[C@H]2CC[C@@](O)(c3ccc(-c4ncccn4)cn3)CC2)C1)c1cccc(C(F)(F)F)c1 [PF-4136309]

Reply:
1. 56%
2. 23%
3. 25%
4. 17%
5. 19%
6. 30%

For each of the compounds below, state Population Tubulin-Different-Phenotype (%).
1. O=S(=O)(c1ccccc1)c1cnc2c(N3CCNCC3)cccc2c1 [INTEPIRDINE]
2. COc1c(C)cc(NC(=O)c2nn(Cc3ccc(F)cc3)c3c2CN(C(=O)c2ccc[nH]2)C[C@]3(C)C(N)=O)cc1C

Reply:
["27%", "59%"]

For each of the compounds below, state Population Tubulin-Different-Phenotype (%).
1. COc1ccc2c(c1)C(C(=O)N(Cc1ccc(N(C)C)cc1)c1ccc(C(C)C)cc1)CCC2.Cl (centres undefined)
2. CNC[C@H](O)c1ccc(O)c(O)c1 [EPINEPHRINE]
3. CCNC1(C(N)=O)CCN(c2ncnc3c2nc(-c2ccccc2Cl)n3-c2ccc(Cl)cc2)CC1 [OTENABANT]
4. C[C@H](NC(=O)c1c(C(F)F)nn(C)c1Oc1cccc(C(F)(F)F)c1)c1ccc(C(=O)O)cc1 [PALUPIPRANT]
5. O=C(O)c1cc2ccccc2c(Cc2c(O)c(C(=O)O)cc3ccccc23)c1O [PAMOIC ACID]
6. COc1ccccc1N1CCN(CCCCNC(=O)c2ccc3ccccc3c2)CC1.Cl
7. O=C(NCCO)c1cccc(-c2cc(Nc3ccc(OC(F)(F)F)cc3)ncn2)c1

Reply:
["50%", "13%", "57%", "17%", "12%", "71%", "13%"]

---

Test system: U2OS
Test: Multiplex assay against U2OS
Type: toxicity, cell-based
Conditions: human, 48 h, 10 µM, compound concentration 10 uM, replicate 1
Field: Population Healthy Nuclei (%). Provide a value for each of the compounds that follow.
One number for each entry, in %.

Take a look at these entries with their results.
{"columns": ["compound", "unit spec", "Population Healthy Nuclei (%)"],
 "data": [
  ["CN(C)c1ccnc2sc3c(=O)n(N4CCCCCC4)cnc3c12", "%", 57],
  ["N#Cc1c(N)nc(SCc2csc(-c3ccc(Cl)cc3)n2)c(C#N)c1-c1ccc(OCCO)cc1", "%", 30],
  ["c1cc(OCCCN2CCCCC2)ccc1CN1CCCCC1", "%", 70],
  ["CC(=O)NCCc1c(Cc2ccccc2)[nH]c2ccccc12", "%", 69],
  ["Oc1c(CN2CCN(c3ccccn3)CC2)cc(Cl)c2cccnc12", "%", 57],
  ["CSCC[C@H](NC=O)C(=O)N[C@@H](CC(C)C)C(=O)N[C@@H](Cc1ccccc1)C(=O)O", "%", 70],
  ["CN1CCN2c3ncccc3Cc3ccccc3C2C1 (stereo not drawn)", "%", 75],
  ["O=S(=O)(c1ccccc1)c1cnc2c(N3CCNCC3)cccc2c1 [INTEPIRDINE]", "%", 59]
]}

For each of the compounds below, state Population Healthy Nuclei (%).
1. Cc1ccc(F)cc1C(=O)Nc1ccc(C(=O)N2Cc3cccn3Cc3ccccc32)c(Cl)c1
2. Cc1ccc(-c2ccc(F)cc2COc2ccc(CCC(=O)O)cc2)cc1
3. CCNC1(C(N)=O)CCN(c2ncnc3c2nc(-c2ccccc2Cl)n3-c2ccc(Cl)cc2)CC1
4. C[C@H]1[C@H]2CC[C@H]3[C@@H]4CC=C5C[C@@H](N(C)C)CC[C@]5(C)[C@H]4CC[C@]23CN1C
5. CCOc1c2c(c(OCC)c3ncccc13)CN(c1ccc(CS(=O)(=O)NC(=O)Cc3ccccc3OC)cc1C)C2=O
6. O=C1COc2nccc(-c3ccccc3F)c2CN1Cc1cc(C(F)(F)F)cc(C(F)(F)F)c1
7. CC[C@H]1OC(=O)[C@H](C)[C@@H](O[C@H]2C[C@@](C)(OC)[C@@H](O)[C@H](C)O2)[C@H](C)[C@@H](O[C@@H]2O[C@H](C)C[C@H](N(C)C)[C@H]2O)[C@@]2(C)CC(C)=C(O2)[C@H](C)[C@@H](O)[C@]1(C)O

Reply:
[37, 70, 43, 73, 71, 46, 31]

For each of the compounds below, state Population Healthy Nuclei (%).
1. CN1CCN(c2nc3cc(C(F)(F)F)ccc3n3cccc23)CC1.O=C(O)/C=C\C(=O)O.O=C(O)/C=C\C(=O)O
2. O=C(NCCO)c1cccc(-c2cc(Nc3ccc(OC(F)(F)F)cc3)ncn2)c1
3. CNC[C@H](O)c1ccc(O)c(O)c1 [EPINEPHRINE]

Reply:
[52, 72, 44]

---

Tested on: Fibroblast
Assay: Multiplex assay against human fibroblast
Format: toxicity, cell-based
Conditions: 12 h, 1 µM, compound concentration 1 uM, replicate 1
quantity measured: Population Normal (%)
Answers are plain numbers, in %.

For each of the molecules below, state Population Normal (%).
1. CCCN1CCC[C@@H]2Cc3n[nH]cc3C[C@H]21.Cl [QUINPIROLE HYDROCHLORIDE]
2. Cc1nc2ccc(Oc3ccc(F)cc3)cc2c(=O)n1C[C@H]1CCCN(C(C)C)C1.Cl
3. c1cc(OCCCN2CCCCC2)ccc1CN1CCCCC1
4. C[C@@H]1C[C@H]2[C@@H]3CCC4=CC(=O)C=C[C@]4(C)[C@@]3(F)[C@@H](O)C[C@]2(C)[C@@]1(O)C(=O)CO
5. CC(=O)NCCc1c(Cc2ccccc2)[nH]c2ccccc12
6. CN(C)CCCc1cc(C(=O)Nc2ccc(-c3ccncc3)cc2)ccc1O.Cl.Cl
7. Cl.Clc1ccc2nsnc2c1NC1=NCCN1 [TIZANIDINE HYDROCHLORIDE]
8. O=C1COc2nccc(-c3ccccc3F)c2CN1Cc1cc(C(F)(F)F)cc(C(F)(F)F)c1

Reply:
97
94
98
92
98
95
96
97

For each of the molecules below, state Population Normal (%).
1. CN1CCN2c3ncccc3Cc3ccccc3C2C1 (stereo not given)
2. CCCn1c(=O)c2[nH]c(C3CCCC3)nc2n(CCC)c1=O
3. O=S(=O)(c1ccccc1)c1cnc2c(N3CCNCC3)cccc2c1 [INTEPIRDINE]

Reply:
96
96
96
